System: HUVEC
assay summary: Transendothelial transport
Format: cell-based, human
applied conditions: pretreatment of HUVEC with inhibitor or enzyme; n=6
metric: Effect on transendothelial LL37 transportation

Record lookup: for HUVEC, what Effect on transendothelial LL37 transportation belongs to COc1cc2c(c(OC)c1OC)-c1ccc(OC)c(=O)cc1[C@@H](NC(C)=O)CC2 [colchicine] ?
abrogated

Entry C=C1[C@@H](C)[C@H]2[C@H](Cc3ccccc3)NC(=O)[C@]23OC(=O)/C=C/[C@H](O)CCC[C@@H](C)C/C=C/[C@H]3[C@@H]1O [cytochalasin B] please
abrogated
